compounds and their reported mass density
- Condition notes: 363.15 K; 101.33 kPa; Liquid; Vibrating tube method
# unit: kg/m3 | format: bare number

The following compounds have reported results that may help.
Please report mass density for the following compound: CC(=O)O.CCN(C)C [N,N-dimethylethanamine acetate]
965.1

Please report mass density for the following compound: CC(=O)[O-].CCn1cc[nH+]c1 [1-ethyl-1H-imidazolium acetate]
978.5

Please report mass density for the following compound: CC(=O)[O-].CCCCn1cc[n+](C)c1 [1-butyl-3-methylimidazolium acetate]
1013.3

With those in mind, consider the next compound.
Please report mass density for the following compound: CC(=O)[O-].CCCC[N+]1(C)CCCC1 [1-butyl-1-methylpyrrolidinium acetate]
983.5

###

compounds and their reported refractive index
- Experiment notes: refractive index (Na D-line) (dimensionless)
- Condition notes: 288.15 K; 101.33 kPa; Liquid; Standard Abbe refractometry
Answer as a number with no unit attached.

The following compounds have reported results that may help.
Please report refractive index for the following compound: CC(=O)[O-].CCn1cc[nH+]c1 [1-ethyl-1H-imidazolium acetate]
1.4616

Please report refractive index for the following compound: CC(=O)[O-].CCn1cc[n+](C)c1 [1-ethyl-3-methylimidazolium acetate]
1.50267

Please report refractive index for the following compound: CC(=O)[O-].CCCCn1cc[n+](C)c1 [1-butyl-3-methylimidazolium acetate]
1.49158

Please report refractive index for the following compound: CC(=O)[O-].CCCC[N+]1(C)CCCC1 [1-butyl-1-methylpyrrolidinium acetate]
1.47144

With those in mind, consider the next compound.
Please report refractive index for the following compound: CC(=O)O.CCN(C)C [N,N-dimethylethanamine acetate]
1.42143

###

- Condition notes: 303.15 K; 101.33 kPa; Liquid; Concentric cylinders viscometry
compounds and their reported viscosity
# include the unit after the value

The following compounds have reported results that may help.
Please report viscosity for the following compound: CC(=O)O.CCN(C)C [N,N-dimethylethanamine acetate]
11.68 mPa·s

Please report viscosity for the following compound: CC(=O)[O-].CCCC[N+]1(C)CCCC1 [1-butyl-1-methylpyrrolidinium acetate]
79.92 mPa·s

Please report viscosity for the following compound: CC(=O)[O-].CCn1cc[nH+]c1 [1-ethyl-1H-imidazolium acetate]
4.337 mPa·s

With those in mind, consider the next compound.
Please report viscosity for the following compound: CC(=O)[O-].CCCCn1cc[n+](C)c1 [1-butyl-3-methylimidazolium acetate]
209.65 mPa·s

###

compounds and their reported mass density
- Condition notes: 353.15 K; 101.33 kPa; Liquid; Vibrating tube method
# unit: kg/m3 | format: bare number

Please report mass density for the following compound: CC(=O)[O-].CCCC[N+]1(C)CCCC1 [1-butyl-1-methylpyrrolidinium acetate]
989.2

Please report mass density for the following compound: CC(=O)O.CCN(C)C [N,N-dimethylethanamine acetate]
973.1

Please report mass density for the following compound: CC(=O)[O-].CCCCn1cc[n+](C)c1 [1-butyl-3-methylimidazolium acetate]
1019.1

Next:
Please report mass density for the following compound: CC(=O)[O-].CCn1cc[nH+]c1 [1-ethyl-1H-imidazolium acetate]
987.2

###

- Condition notes: 338.15 K; 101.33 kPa; Liquid; Vibrating tube method
molecules and their reported mass density
# unit: kg/m3 | format: bare number

The following molecules have reported results that may help.
Please report mass density for the following molecule: CC(=O)[O-].CCCCn1cc[n+](C)c1 [1-butyl-3-methylimidazolium acetate]
1028

Please report mass density for the following molecule: CC(=O)[O-].CCCC[N+]1(C)CCCC1 [1-butyl-1-methylpyrrolidinium acetate]
997.8

Please report mass density for the following molecule: CC(=O)O.CCN(C)C [N,N-dimethylethanamine acetate]
985

With those in mind, consider the next molecule.
Please report mass density for the following molecule: CC(=O)[O-].CCn1cc[nH+]c1 [1-ethyl-1H-imidazolium acetate]
999.8

###

- Condition notes: 348.15 K; 101.33 kPa; Liquid; Concentric cylinders viscometry
compounds and their reported viscosity
# unit: mPa·s | format: bare number

The following compounds have reported results that may help.
Please report viscosity for the following compound: CC(=O)O.CCN(C)C [N,N-dimethylethanamine acetate]
3.578

Please report viscosity for the following compound: CC(=O)[O-].CCn1cc[nH+]c1 [1-ethyl-1H-imidazolium acetate]
1.762

Please report viscosity for the following compound: CC(=O)[O-].CCCCn1cc[n+](C)c1 [1-butyl-3-methylimidazolium acetate]
24.04

With those in mind, consider the next compound.
Please report viscosity for the following compound: CC(=O)[O-].CCCC[N+]1(C)CCCC1 [1-butyl-1-methylpyrrolidinium acetate]
13.3

###

- Experiment notes: refractive index (Na D-line) (dimensionless)
- Condition notes: 343.15 K; 101.33 kPa; Liquid; Standard Abbe refractometry
molecules and their reported refractive index
Answer as a number with no unit attached.

The following molecules have reported results that may help.
Please report refractive index for the following molecule: CC(=O)[O-].CCn1cc[n+](C)c1 [1-ethyl-3-methylimidazolium acetate]
1.48756

Please report refractive index for the following molecule: CC(=O)[O-].CCCCn1cc[n+](C)c1 [1-butyl-3-methylimidazolium acetate]
1.47463

Please report refractive index for the following molecule: CC(=O)O.CCN(C)C [N,N-dimethylethanamine acetate]
1.40312

Please report refractive index for the following molecule: CC(=O)[O-].CCn1cc[nH+]c1 [1-ethyl-1H-imidazolium acetate]
1.44

With those in mind, consider the next molecule.
Please report refractive index for the following molecule: CC(=O)[O-].CCCC[N+]1(C)CCCC1 [1-butyl-1-methylpyrrolidinium acetate]
1.45755

###

- Experiment notes: refractive index (Na D-line) (dimensionless)
- Condition notes: 348.15 K; 101.33 kPa; Liquid; Standard Abbe refractometry
Measured property: refractive index
Answer as a number with no unit attached.

The following compounds have reported results that may help.
Please report refractive index for the following compound: CC(=O)[O-].CCCC[N+]1(C)CCCC1 [1-butyl-1-methylpyrrolidinium acetate]
1.45619

Please report refractive index for the following compound: CC(=O)[O-].CCn1cc[nH+]c1 [1-ethyl-1H-imidazolium acetate]
1.438

Please report refractive index for the following compound: CC(=O)[O-].CCCCn1cc[n+](C)c1 [1-butyl-3-methylimidazolium acetate]
1.47318

Please report refractive index for the following compound: CC(=O)[O-].CCn1cc[n+](C)c1 [1-ethyl-3-methylimidazolium acetate]
1.48613

With those in mind, consider the next compound.
Please report refractive index for the following compound: CC(=O)O.CCN(C)C [N,N-dimethylethanamine acetate]
1.40138

###

compounds and their reported refractive index
- Experiment notes: refractive index (Na D-line) (dimensionless)
- Condition notes: 313.15 K; 101.33 kPa; Liquid; Standard Abbe refractometry
Answer as a number with no unit attached.

The following compounds have reported results that may help.
Please report refractive index for the following compound: CC(=O)O.CCN(C)C [N,N-dimethylethanamine acetate]
1.41328

Please report refractive index for the following compound: CC(=O)[O-].CCCCn1cc[n+](C)c1 [1-butyl-3-methylimidazolium acetate]
1.48438

Please report refractive index for the following compound: CC(=O)[O-].CCn1cc[n+](C)c1 [1-ethyl-3-methylimidazolium acetate]
1.49581

Please report refractive index for the following compound: CC(=O)[O-].CCn1cc[nH+]c1 [1-ethyl-1H-imidazolium acetate]
1.45185

With those in mind, consider the next compound.
Please report refractive index for the following compound: CC(=O)[O-].CCCC[N+]1(C)CCCC1 [1-butyl-1-methylpyrrolidinium acetate]
1.46603

###

compounds and their reported refractive index
- Experiment notes: refractive index (Na D-line) (dimensionless)
- Condition notes: 338.15 K; 101.33 kPa; Liquid; Standard Abbe refractometry
Answer as a number with no unit attached.

The following compounds have reported results that may help.
Please report refractive index for the following compound: CC(=O)[O-].CCCCn1cc[n+](C)c1 [1-butyl-3-methylimidazolium acetate]
1.47624

Please report refractive index for the following compound: CC(=O)[O-].CCCC[N+]1(C)CCCC1 [1-butyl-1-methylpyrrolidinium acetate]
1.459

Please report refractive index for the following compound: CC(=O)[O-].CCn1cc[nH+]c1 [1-ethyl-1H-imidazolium acetate]
1.44197

Please report refractive index for the following compound: CC(=O)O.CCN(C)C [N,N-dimethylethanamine acetate]
1.40476

Next:
Please report refractive index for the following compound: CC(=O)[O-].CCn1cc[n+](C)c1 [1-ethyl-3-methylimidazolium acetate]
1.48899

###

- Experiment notes: refractive index (Na D-line) (dimensionless)
- Condition notes: 308.15 K; 101.33 kPa; Liquid; Standard Abbe refractometry
molecules and their reported refractive index
Answer as a number with no unit attached.

The following molecules have reported results that may help.
Please report refractive index for the following molecule: CC(=O)[O-].CCn1cc[nH+]c1 [1-ethyl-1H-imidazolium acetate]
1.45379

Please report refractive index for the following molecule: CC(=O)[O-].CCCC[N+]1(C)CCCC1 [1-butyl-1-methylpyrrolidinium acetate]
1.46736

Please report refractive index for the following molecule: CC(=O)[O-].CCCCn1cc[n+](C)c1 [1-butyl-3-methylimidazolium acetate]
1.4858

Please report refractive index for the following molecule: CC(=O)[O-].CCn1cc[n+](C)c1 [1-ethyl-3-methylimidazolium acetate]
1.49718

Next:
Please report refractive index for the following molecule: CC(=O)O.CCN(C)C [N,N-dimethylethanamine acetate]
1.41492

Ref: the NIST ThermoML archive (doi:10.1021/je300487n)
